Reference source for all entries: patent US5446037A

Biological target: human leukocyte elastase (HLE) (Homo sapiens)
Construct: purchased Elastin products, Missouri, U.S.A
Sequence (P08246 30-267): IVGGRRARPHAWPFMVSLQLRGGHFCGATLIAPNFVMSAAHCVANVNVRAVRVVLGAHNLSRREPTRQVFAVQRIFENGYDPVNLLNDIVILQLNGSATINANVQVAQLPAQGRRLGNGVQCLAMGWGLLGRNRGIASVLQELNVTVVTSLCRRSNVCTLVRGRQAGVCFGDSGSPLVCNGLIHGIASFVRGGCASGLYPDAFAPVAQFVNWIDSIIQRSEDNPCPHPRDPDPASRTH
Assay: Human leukocyte elastase (HLE) inhibition (MeO-Suc-Ala-Ala-Pro-Val-pNA hydrolysis, absorbance at 410 nm)
Type: biochemical
Conditions: Table I; pH 7.6, 30° C., 10 min pre-incubation, 10% (v/v) DMSO
pIC50: −log10 of the molar value.
Measured metric: pIC50

These solved cases illustrate the format of a correct answer.
Molecule	pIC50
CO[C@H]1C(=O)N2C(C(=O)OC(C)(C)C)=C(COC(C)=O)/C(=C/c3ccsc3)S(=O)(=O)[C@H]12	8.19
CO[C@H]1C(=O)N2C(C(=O)OC(C)(C)C)=C(C)/C(=C\c3cn(C)nn3)S(=O)(=O)[C@H]12	7.00

(I) CO[C@H]1C(=O)N2C(C(=O)OC(C)(C)C)=C(C)/C(=C/c3cn(C)nn3)S(=O)(=O)[C@H]12
(II) CO[C@H]1C(=O)N2C(C(=O)OC(C)(C)C)=C(COC(C)=O)/C(=C/c3ccccc3F)S(=O)(=O)[C@H]12 [drawing 21]
Which value of pIC50 is numerically greater: that of I or that of II ? Your choice should be expressed through its label.
II
(II: 8.24, I: 7.12)
